Provenance of the data: patent US20260250301A1

System: PANC-1 pERK
Experiment description: Phospho-ERK 1/2 assay
Type: cell-based
Measurement parameters: Homo sapiens; PANC-1 cells, compound incubation 3 hours, pERK normalised with GAPDH antibody staining
Recorded metric: pIC50
Give bare numbers, as −log10 of the molar value.

INPUT: What value of pIC50 has been reported for the following molecule? C#Cc1c(F)ccc2cc(O)cc(-c3nc4c5c(nc(=O)n(C[C@@]67CCCN6C[C@H](F)C7)c5c3F)N3C[C@H]5CC[C@H](N5)[C@H]3CO4)c12 [Example 23]
OUTPUT: 7.02
